Biological target: human MCH receptor (Homo sapiens, UniProt Q99705)
Sequence (Q99705 whole entry): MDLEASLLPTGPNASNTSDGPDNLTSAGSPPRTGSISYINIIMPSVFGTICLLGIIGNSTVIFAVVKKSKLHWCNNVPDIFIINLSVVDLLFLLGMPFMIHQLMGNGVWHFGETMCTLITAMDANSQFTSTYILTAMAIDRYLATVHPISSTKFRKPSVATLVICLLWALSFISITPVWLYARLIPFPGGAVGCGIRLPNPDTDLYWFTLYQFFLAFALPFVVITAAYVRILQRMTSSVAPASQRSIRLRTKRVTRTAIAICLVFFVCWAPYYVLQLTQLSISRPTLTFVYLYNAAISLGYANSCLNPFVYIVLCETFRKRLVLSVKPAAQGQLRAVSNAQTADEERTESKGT
Assay: functional IC50 of MCH1R antagonists: cellular calcium flux (FLIPR), called calcium immobilization assay
Details: calcium flux after addition of agonist (MCH), recombinant HEK293 cell line expressing the human MCH receptor
PROPERTY MEASURED: IC50 (µM)

As a guide, the following entries are already answered.
• CC1(O)CCCC1Oc1ccc2c(=O)n(-c3ccc(N4CC[C@@H](N5CCCC5)C4)c(F)c3)ccc2c1 (stereo partly drawn) = 1.39
• CC(O)CCOc1ccc2c(=O)n(-c3ccc(N4CC[C@@H](N5CCCC5)C4)c(F)c3)ccc2c1 (stereo partly drawn) = 0.41
• CN(C)[C@@H]1CCN(c2ccc(N3CCc4cc(OCC5(C)COC5)ccc4C3=O)cc2F)C1 = 1.42
• CC(C)(O)CN1CC[C@]2(CCN(c3ccc(N4CCc5cc(OC[C@@H]6CCCO6)ccc5C4=O)cc3)C2)C1 = 0.2
• CCCCOc1ccc2c(c1)CCN(c1ccc(N3CC[C@@H](N(C)CCS(C)(=O)=O)C3)c(F)c1)C2=O = 1.07
• CN(C)[C@@H]1CCN(c2ccc(N3CCc4cc(OC5CCC(O)C5)ccc4C3=O)cc2F)C1 (stereo partly drawn) = 1.46
• CCCCOc1ccc2c(c1)CCN(c1ccc(N3CCC(N4CCN(C(C)=O)CC4)C3)cc1)C2=O (stereo not drawn) = 0.23
• O=c1c2ccc(OCCCF)cc2ccn1-c1ccc(N2CC[C@]3(CCN(CCCF)C3)C2)cc1 = 0.36
• O=c1c2ccc(OCC(O)C(F)(F)F)cc2ccn1-c1ccc(N2CC[C@@H](N3CCCC3)C2)c(F)c1 (stereo partly drawn) = 0.18
• CC(C)C(=O)Nc1ccc2c(c1)CCN(c1ccc(N3CC[C@@H](N(C)C)C3)c(F)c1)C2=O = 3.41

1. CN(C)C1(C)CCN(c2ccc(-n3ccc4cc(OC[C@H]5CCCO5)ccc4c3=O)cc2F)C1 (stereo partly drawn)
2. CCCCOc1ccc2c(c1)CCN(c1ccc(N3CCC(NCCCN4CCCC4=O)C3)cc1)C2=O (stereo not drawn)
# min-compare on IC50 between 1 and 2 I would appreciate it if you answered with the label of your choice.
2
(2: 0.22 µM, 1: 1.14 µM)

I. CN1CC2(CCN(c3ccc(-n4ccc5cc(OC[C@H]6CCCO6)ccc5c4=O)cc3F)C2)C1
II. CN[C@@H]1CCN(c2ccc(N3CCc4cc(OC5CC(C)OC5=O)ccc4C3=O)cc2F)C1 (stereo partly drawn)
Lab notebook, comparison: I versus II , higher IC50 goes to which? I would appreciate it if you answered with the label of your choice.
II
(II: 6.24 µM, I: 0.22 µM)
